The measurements presented in this section are drawn from patent US20230263822A1.

Test system: human Factor 11 mRNA
assay_notes: Dose-dependent inhibition of human Factor 11 in HepG2 cells, electroporation 625-20,000 nM (Example 5)
Format: cell-based
reported_conditions: 1250 nM, ~16 hours
Assign label 1 to entries whose percent inhibition of human Factor 11 mRNA relative to untreated control cells meets or exceeds 80%; assign label 0 to the rest.

Examples with answers:
416864 (antisense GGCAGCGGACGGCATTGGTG; 5-10-5 gapmer, further chemistry not given here) [compound 416864]; label 0
416825 (antisense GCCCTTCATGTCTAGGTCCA; 5-10-5 gapmer, further chemistry not given here) [compound 416825]; label 1

// inclusive: percent inhibition of human Factor 11 mRNA relative to untreated control cells at least 80%? input: 417002 (antisense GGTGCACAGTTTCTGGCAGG; 2-13-5 gapmer chemistry, further chemistry not given here) [compound 417002]
label 0

---

assay_notes: Tolerability in CD1 mice: liver function, ALT, AST, bilirubin, albumin (Example 33)
reported_conditions: plasma, 50 mg/kg s.c. twice a week, 6 weeks
measurement_name: AST (IU/L)
# value in IU/L; strip the unit string

Consider the worked cases shown below.
ISIS 416858: MOE gapmer, nucleobases 1275 to 1318 of SEQ ID NO: 1 (Table 8) (antisense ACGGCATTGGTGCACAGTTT; MOE gapmer, wing and gap sizes not given here); 178
ISIS 416838: MOE gapmer, nucleobases 1018 to 1042 of SEQ ID NO: 1 (Table 6) (antisense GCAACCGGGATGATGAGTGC; MOE gapmer, wing and gap sizes not given here); 107
ISIS 416864: MOE gapmer, nucleobases 1275 to 1318 of SEQ ID NO: 1 (Table 8) (antisense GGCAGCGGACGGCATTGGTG; MOE gapmer, wing and gap sizes not given here); 101
ISIS 417002: MOE gapmer, nucleobases 1275 to 1318 of SEQ ID NO: 1 (Table 8) (antisense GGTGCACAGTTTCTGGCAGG; MOE gapmer, wing and gap sizes not given here); 1166

We next turn to a different substance, shown below.
Which AST value belongs to ISIS 416850: MOE gapmer, nucleobases 1275 to 1318 of SEQ ID NO: 1 (Table 8) (antisense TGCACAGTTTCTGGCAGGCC; MOE gapmer, wing and gap sizes not given here) ?
97

---

Test system: human Factor 11 mRNA
assay_notes: Dose-dependent inhibition of human Factor 11 in HepB3 cells, lipofectin (Example 7)
Format: cell-based
reported_conditions: 4.7 nM, ~16 hours
# reported percent inhibition of Factor 11 mRNA relative to untreated control cells; entries follow
Give just the numeric value; % need not be written.

Example substances with recorded percent inhibition of Factor 11 mRNA relative to untreated control cells:
416826 (antisense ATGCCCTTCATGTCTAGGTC; 5-10-5 gapmer, further chemistry not given here) [compound 416826]; 28
416850 (antisense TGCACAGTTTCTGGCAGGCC; 5-10-5 gapmer, further chemistry not given here) [compound 416850]; 32

Please look at the following substance next.
Query (substance): 416838 (antisense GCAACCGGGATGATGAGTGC; 5-10-5 gapmer, further chemistry not given here) [compound 416838] ; field requested: percent inhibition of Factor 11 mRNA relative to untreated control cells
34

---

Recorded percent inhibition of human Factor 11 mRNA relative to untreated control cells values for a group of substances are listed next.
System: human Factor 11 mRNA
assay_notes: Dose-dependent inhibition of human Factor 11 in cyano primary hepatocytes, electroporation (Example 6)
Format: cell-based
reported_conditions: 2.2 nM, ~16 hours
Hi! Could you send only the number? It should be in %, unit omitted.

Returns the measured percent inhibition of human Factor 11 mRNA relative to untreated control cells for the input substance. Input: 417002 (antisense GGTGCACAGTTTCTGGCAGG; 2-13-5 gapmer chemistry, further chemistry not given here) [compound 417002]
16

Fill in the blank: the reported percent inhibition of human Factor 11 mRNA relative to untreated control cells of 417003 (antisense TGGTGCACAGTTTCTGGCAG; 2-13-5 gapmer chemistry, further chemistry not given here) [compound 417003] is ____.
18

// lookup percent inhibition of human Factor 11 mRNA relative to untreated control cells for 416999 (antisense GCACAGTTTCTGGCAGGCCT; 2-13-5 gapmer chemistry, further chemistry not given here) [compound 416999]
40

Given 416825 (antisense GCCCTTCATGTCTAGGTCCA; 5-10-5 gapmer, further chemistry not given here) [compound 416825] , state its recorded percent inhibition of human Factor 11 mRNA relative to untreated control cells.
22
